# subject of test: wt human TYK2, catalytic site (Homo sapiens, UniProt P29597)
# Construct: wt human TYK2, catalytic site
# Sequence (P29597 897-1176 limits assumed): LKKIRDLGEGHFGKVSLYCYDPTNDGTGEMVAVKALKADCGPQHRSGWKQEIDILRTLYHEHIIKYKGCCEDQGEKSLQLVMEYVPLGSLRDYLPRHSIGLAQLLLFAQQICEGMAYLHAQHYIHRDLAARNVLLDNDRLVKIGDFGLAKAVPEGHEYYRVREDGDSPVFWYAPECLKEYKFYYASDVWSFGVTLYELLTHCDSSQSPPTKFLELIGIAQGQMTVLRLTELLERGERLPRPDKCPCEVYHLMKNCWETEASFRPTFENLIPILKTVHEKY
# procedure details: HTRF KinEASE assay, TYK2
# assay setup: 1 μM ATP; read-out: IC50, Activity Toward TYK2
pIC50: −log10 of the molar value.
property measured: pIC50

> print(dat)
                                    compound                           subject.of.test  property.measured        result
 1  CN1CCN(C(=O)c2ccc(Nc3cn(-c4c(Cl)cccc4Cl)nc3C(N)=O)cc2)CC1 [compound 32]  wt human TYK2, catalytic site (Homo sapiens, UniProt P29597)              pIC50        > 8.00
 2  NC(=O)c1nn(-c2c(Cl)cccc2Cl)nc1Nc1ccc(C(=O)N2CC(F)C2)cc1 [compound 129]  wt human TYK2, catalytic site (Homo sapiens, UniProt P29597)              pIC50        > 8.00
 3  N#Cc1cn(CCO)c(-c2ccc(Nc3cn(-c4c(Cl)cccc4Cl)nc3C(N)=O)cc2)n1 [compound 361]  wt human TYK2, catalytic site (Homo sapiens, UniProt P29597)              pIC50        > 8.00
 4  NC(=O)c1nn(-c2c(Cl)cccc2Cl)cc1Nc1cnc(C(=O)N2CCOCC2)cn1 [compound 401]  wt human TYK2, catalytic site (Homo sapiens, UniProt P29597)              pIC50  6.00 to 7.00
 5  NC(=O)c1nn(-c2c(Cl)cccc2Cl)cc1Nc1ccc(C(=O)N2CCN(CC(F)(F)F)CC2)cc1 [compound 93]  wt human TYK2, catalytic site (Homo sapiens, UniProt P29597)              pIC50  7.00 to 8.00
 6  NC(=O)c1nn(-c2c(Cl)cccc2Cl)cc1Nc1ccc(C(=O)N2CC[C@H](F)C2)cn1 [compound 367]  wt human TYK2, catalytic site (Homo sapiens, UniProt P29597)              pIC50  7.00 to 8.00
 7  CN1CCN(C(=O)c2ccc(Nc3nn(-c4c(Cl)cccc4Cl)nc3C(N)=O)cc2)CC1 [compound 102]  wt human TYK2, catalytic site (Homo sapiens, UniProt P29597)              pIC50        > 8.00
 8  Cn1nncc1-c1ccc(Nc2cn(-c3c(Cl)cccc3Cl)nc2C(N)=O)cc1 [compound 48]  wt human TYK2, catalytic site (Homo sapiens, UniProt P29597)              pIC50  7.00 to 8.00
 9  COCc1nc(C(F)(F)F)nn1-c1ccc(Nc2cn(-c3c(F)cccc3Cl)nc2C(N)=O)cc1 [compound 298]  wt human TYK2, catalytic site (Homo sapiens, UniProt P29597)              pIC50  7.00 to 8.00
10  CN(C)CCc1nnnn1-c1ccc(Nc2cn(-c3c(Cl)cccc3Cl)nc2C(N)=O)cc1 [compound 273]  wt human TYK2, catalytic site (Homo sapiens, UniProt P29597)              pIC50  7.00 to 8.00
11  CC(C)n1ncnc1-c1ccc(Nc2cn(-c3c(F)cccc3F)nc2C(N)=O)cc1 [compound 309]  wt human TYK2, catalytic site (Homo sapiens, UniProt P29597)              pIC50  6.00 to 7.00
12  NC(=O)c1nn(-c2c(Cl)cccc2Cl)cc1Nc1ccc(C(=O)N2CCC(N3CCCC3)C2)cc1 (stereo not shown) [compound 249]  wt human TYK2, catalytic site (Homo sapiens, UniProt P29597)              pIC50        > 8.00
13  N#Cc1cn(CCO)c(-c2ccc(Nc3cn(-c4c(Cl)cccc4Cl)nc3C(N)=O)cn2)n1 [compound 387]  wt human TYK2, catalytic site (Homo sapiens, UniProt P29597)              pIC50  7.00 to 8.00
